The measurements presented in this section are drawn from paper PMC6385122.

Counter-ions that a name gives are not always drawn.
measureName: melting point

Worked examples, 3 molecules total:
Clc1cccc(/C(=N\Cc2ccccc2)N2CCNCC2)c1 (as salt: hydrochloride); 235 to 237 °C
Clc1cccc(/C(=N\Cc2cccc3ccccc23)N2CCNCC2)c1 (as salt: hydrochloride); 198 to 200 °C
O=[N+]([O-])c1ccc(/C(=N\Cc2ccccc2)N2CCNCC2)cc1 (as salt: hydrochloride); 230 to 231 °C

Per the record, Clc1ccccc1/C(=N\Cc1ccccc1)N1CCNCC1 (as salt: hydrochloride) has melting point of 142 to 144 °C

What the record says about Fc1ccc(/C(=N\Cc2ccccc2)N2CCNCC2)cc1 (as salt: hydrochloride) : melting point is 220 to 222 °C

get_value(item= Cc1ccc(/C(=N\Cc2ccccc2)N2CCNCC2)cc1 (as salt: hydrochloride) , readout=melting point) returns 172 to 174 °C

get_value(item= N#Cc1ccc(/C(=N\Cc2ccc(Cl)cc2)N2CCNCC2)cc1 (as salt: hydrochloride) , readout=melting point) returns 180 to 182 °C

====

systemTested: NE reuptake (NE transporter) (Rattus norvegicus)
Construct: from tissue; host or cells: Wistar rat brain (procerebrum; crude synaptosomal supernatant)
Sequence (Q63380 1-617): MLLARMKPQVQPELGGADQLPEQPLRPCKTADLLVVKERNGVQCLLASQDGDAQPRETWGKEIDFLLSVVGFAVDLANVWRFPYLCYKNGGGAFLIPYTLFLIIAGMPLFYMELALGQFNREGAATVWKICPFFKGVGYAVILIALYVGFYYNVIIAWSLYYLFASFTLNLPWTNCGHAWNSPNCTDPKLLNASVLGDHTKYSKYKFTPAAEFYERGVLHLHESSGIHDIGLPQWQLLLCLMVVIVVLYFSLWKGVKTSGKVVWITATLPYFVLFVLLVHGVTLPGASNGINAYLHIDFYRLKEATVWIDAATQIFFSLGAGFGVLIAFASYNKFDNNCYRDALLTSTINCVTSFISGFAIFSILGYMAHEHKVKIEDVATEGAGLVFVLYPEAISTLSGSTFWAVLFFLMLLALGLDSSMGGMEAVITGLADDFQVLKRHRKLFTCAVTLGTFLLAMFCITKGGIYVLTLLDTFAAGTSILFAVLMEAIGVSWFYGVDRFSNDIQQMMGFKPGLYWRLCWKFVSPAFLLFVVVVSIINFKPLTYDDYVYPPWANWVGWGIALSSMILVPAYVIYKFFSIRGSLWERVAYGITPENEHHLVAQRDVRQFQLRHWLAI
measurementNotes: Inhibition of NE reuptake in rat brain synaptosome (3H-NE uptake)
Format: biochemical
conditions: 10 μM, read-out: NE reuptake percent inhibition
measureName: inhibition at 10 µM (%)

Solved entries (count: 8):
Fc1ccccc1/C(=N\Cc1ccc(Cl)cc1)N1CCNCC1; 27
Cc1ccc(/C(=N\Cc2cccc3ccccc23)N2CCNCC2)cc1; 63
COc1ccc(/C(=N\Cc2ccccc2)N2CCNCC2)cc1.Cl; 67
N#Cc1ccc(/C(=N\Cc2cccc3ccccc23)N2CCNCC2)cc1; 46
Clc1cccc(/C(=N\Cc2ccccc2)N2CCNCC2)c1; 63
Clc1ccc(C/N=C(\c2cccc(Cl)c2)N2CCNCC2)cc1; 60
COc1ccc(C/N=C(\c2ccc([N+](=O)[O-])cc2)N2CCNCC2)cc1; 57
Clc1ccccc1/C(=N\Cc1cccc2ccccc12)N1CCNCC1; 92

P: Fc1ccc(/C(=N\Cc2cccc3ccccc23)N2CCNCC2)cc1
Q: O=[N+]([O-])c1ccc(/C(=N\Cc2cccc3ccccc23)N2CCNCC2)cc1
## Input Choose between P and Q : whose measured inhibition at 10 µM value is numerically larger? # respond with the chosen item's label
## Output P

a: Clc1ccc(C/N=C(\c2ccc(Cl)cc2)N2CCNCC2)cc1
b: Cc1ccc(/C(=N\Cc2ccc(Cl)cc2)N2CCNCC2)cc1
## Input Would you let me know which has the greater inhibition at 10 µM value, a or b ? In your reply, give the label of the chosen option.
## Output a

====

Structures can show the parent of a compound that is named as a salt.
measureName: melting point

N#Cc1ccc(/C(=N\Cc2cccc3ccccc23)N2CCNCC2)cc1 (as salt: hydrochloride); 158 to 160 °C
Fc1ccccc1/C(=N\Cc1ccccc1)N1CCNCC1 (as salt: hydrochloride); 182 to 184 °C
Cc1ccc(/C(=N\Cc2cccc3ccccc23)N2CCNCC2)cc1 (as salt: hydrochloride); 178 to 180 °C
O=[N+]([O-])c1ccc(/C(=N\Cc2ccccc2)N2CCNCC2)c(Cl)c1 (as salt: hydrochloride); 195 to 197 °C
N#Cc1cccc(/C(=N\Cc2ccccc2)N2CCNCC2)c1 (as salt: hydrochloride); 190 to 192 °C
Fc1ccccc1/C(=N\Cc1ccc(Cl)cc1)N1CCNCC1 (as salt: hydrochloride); 215 to 217 °C

Then this molecule:
Short answer for Cc1ccc(/C(=N\Cc2ccc(Cl)cc2)N2CCNCC2)cc1 (as salt: hydrochloride) : melting point was 183 to 185 °C

====

List of melting point values.
Structures can show the parent of a compound that is named as a salt.

O=[N+]([O-])c1ccc(/C(=N\Cc2cccc3ccccc23)N2CCNCC2)cc1 (as salt: hydrochloride); 202 to 204 °C
Clc1ccc(C/N=C(\c2cccc(Cl)c2)N2CCNCC2)cc1 (as salt: hydrochloride); 218 to 220 °C
Clc1ccc(/C(=N\Cc2ccccc2)N2CCNCC2)cc1 (as salt: hydrochloride); 182 to 184 °C

Reported melting point for Clc1ccc(/C(=N\Cc2cccc3ccccc23)N2CCNCC2)cc1 (as salt: hydrochloride) was 210 to 212 °C

Query N#Cc1ccc(/C(=N\Cc2ccccc2)N2CCNCC2)cc1 (as salt: hydrochloride) yields melting point of 205 to 207 °C

Noted for Fc1ccc(/C(=N\Cc2ccc(Cl)cc2)N2CCNCC2)cc1 (as salt: hydrochloride) : its melting point reads 165 to 167 °C

Field melting point (entry N#Cc1cccc(/C(=N\Cc2cccc3ccccc23)N2CCNCC2)c1 (as salt: hydrochloride) ) reads 168 to 170 °C

Reported melting point for COc1ccc(C/N=C(\c2ccc([N+](=O)[O-])cc2)N2CCNCC2)cc1 (as salt: hydrochloride) was 210 to 212 °C

====

System: rats
measurementNotes: Tail suspension test (TST) in rats
Assay type: in vivo, rat
conditions: male rats, 30 mg/kg PO; compared with the negative control group
Here, each record is paired with measured Rate of Shorten Time (%) data.
Respond with the bare value in %.

N#Cc1cccc(/C(=N\Cc2ccc(Cl)cc2)N2CCNCC2)c1 [Compound I-19]; 37.8
Fc1ccccc1/C(=N\Cc1cccc2ccccc12)N1CCNCC1 [II-4]; 39.7
Clc1ccccc1/C(=N\Cc1cccc2ccccc12)N1CCNCC1 [II-5]; 67.8

Please turn your attention to the following entry.
Item CNCC[C@H](Oc1cccc2ccccc12)c1cccs1 [Duloxetine, reference compound] was tested on rats; the reported Rate of Shorten Time (%) is 79.0

====

systemTested: 5-HT reuptake (5-HT transporter) (Rattus norvegicus)
Construct: from tissue; host or cells: Wistar rat brain (procerebrum; crude synaptosomal supernatant)
Sequence (P31652 whole entry): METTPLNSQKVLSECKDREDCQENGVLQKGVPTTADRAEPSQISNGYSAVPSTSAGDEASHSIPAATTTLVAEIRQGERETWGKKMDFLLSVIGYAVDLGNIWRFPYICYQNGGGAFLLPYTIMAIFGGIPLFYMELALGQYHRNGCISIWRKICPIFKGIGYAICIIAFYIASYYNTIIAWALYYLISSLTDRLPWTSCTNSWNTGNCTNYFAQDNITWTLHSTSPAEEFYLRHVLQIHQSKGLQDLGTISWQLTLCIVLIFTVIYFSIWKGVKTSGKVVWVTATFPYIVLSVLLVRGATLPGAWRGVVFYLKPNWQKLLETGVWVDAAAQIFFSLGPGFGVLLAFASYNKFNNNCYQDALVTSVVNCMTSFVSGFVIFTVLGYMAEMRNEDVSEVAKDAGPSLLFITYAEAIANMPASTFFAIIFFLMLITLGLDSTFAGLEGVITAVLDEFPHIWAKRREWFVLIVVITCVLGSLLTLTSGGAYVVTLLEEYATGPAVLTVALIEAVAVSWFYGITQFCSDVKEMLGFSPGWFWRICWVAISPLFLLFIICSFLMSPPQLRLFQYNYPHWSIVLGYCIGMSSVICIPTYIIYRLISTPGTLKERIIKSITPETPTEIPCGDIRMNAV
measurementNotes: Inhibition of 5-HT reuptake in rat brain synaptosome (3H-5-HT uptake)
Assay type: biochemical
conditions: 10 μM, read-out: 5-HT reuptake percent inhibition
measureName: inhibition at 10 µM (%)

Recorded results for 3 compounds are shown here.
Clc1ccccc1/C(=N\Cc1cccc2ccccc12)N1CCNCC1 [II-5]; 81
O=[N+]([O-])c1cccc2c(/C(=N\Cc3ccccc3)N3CCNCC3)cccc12 [III-1]; 73
COc1ccc(C/N=C(\c2ccc([N+](=O)[O-])cc2)N2CCNCC2)cc1 [Compound I-21]; 34

I: Fc1ccc(/C(=N\Cc2ccccc2)N2CCNCC2)cc1 [Compound I-6]
II: Clc1ccccc1/C(=N\Cc1ccccc1)N1CCNCC1 [Compound I-3]
III: Clc1ccc(C/N=C(\c2cccc(Cl)c2)N2CCNCC2)cc1 [Compound I-14]
## Input Ascending sort, inhibition at 10 µM. Answer with the labels in sequence, matching the requested order.
## Output I, II, III
(I: 17%, II: 48%, III: 76%)

1: O=[N+]([O-])c1ccc(/C(=N\Cc2ccc(Cl)cc2)N2CCNCC2)cc1 [Compound I-12]
2: N#Cc1cccc(/C(=N\Cc2cccc3ccccc23)N2CCNCC2)c1 [II-9]
## Input Of the two listed items, 1 and 2 , which carries the larger inhibition at 10 µM figure? Output the label that corresponds to your choice.
## Output 2
(2: 88%, 1: 51%)

P: Cc1ccc(/C(=N\Cc2ccccc2)N2CCNCC2)cc1 [Compound I-10]
Q: Fc1ccccc1/C(=N\Cc1ccccc1)N1CCNCC1 [Compound I-7]
## Input Lower inhibition at 10 µM: P or Q ? # reply format: chosen label
## Output Q
(Q: 38%, P: 61%)

A: Clc1ccc(/C(=N\Cc2cccc3ccccc23)N2CCNCC2)cc1 [II-7]
B: Fc1ccccc1/C(=N\Cc1ccc(Cl)cc1)N1CCNCC1 [Compound I-17]
## Input Which item exceeds the other in inhibition at 10 µM, A or B ? Response format: the label of the selected entry.
## Output A
(A: 62%, B: 43%)

a: O=[N+]([O-])c1ccc(/C(=N\Cc2ccccc2)N2CCNCC2)c(Cl)c1 [Compound I-11]
b: c1ccc(/C(=N\Cc2cccc3ccccc23)N2CCNCC2)cc1 [II-1]
## Input Which record would sort first by descending inhibition at 10 µM, a or b ? Reply with the label of the item you choose.
## Output b

A: Clc1ccc(C/N=C(\c2ccccc2Cl)N2CCNCC2)cc1 [Compound I-13]
B: Fc1ccc(/C(=N\Cc2ccc(Cl)cc2)N2CCNCC2)cc1 [Compound I-16]
## Input Given the listed items, does A or B have the lesser reported inhibition at 10 µM? Pick one; state its label.
## Output B
(B: 45%, A: 67%)

1: Cc1ccc(/C(=N\Cc2ccc(Cl)cc2)N2CCNCC2)cc1 [Compound I-20]
2: Clc1ccc(C/N=C(\c2ccc(Cl)cc2)N2CCNCC2)cc1 [Compound I-15]
## Input Lab note: record which item had the higher inhibition at 10 µM, 1 or 2 . Your choice should be expressed through its label.
## Output 1

a: Cc1ccc(/C(=N\Cc2cccc3ccccc23)N2CCNCC2)cc1 [II-10]
b: N#Cc1ccc(/C(=N\Cc2ccccc2)N2CCNCC2)cc1 [Compound I-8]
## Input Choose between a and b : whose measured inhibition at 10 µM value is numerically larger? Let me know the label of the one you choose.
## Output a
(a: 82%, b: 54%)
